Tested on: ADSL in HeLa cells
Assay: Cellular SAICAR, AICAR, S-AMP and AMP levels by HILIC-HPLC-MS
Type: cell-based, human
Details: Homo sapiens, 12 h, triethylammonium salt form, read-out: EC50, increase of cellular level of SAICAR
Property: EC50
Hi, when you answer, please include the unit after the number. Thanks!

Note EC50 for the compound shown: O=C(Nc1ccccc1S(=O)(=O)O)c1cccc(C(=O)Nc2ccccc2S(=O)(=O)O)c1
0.4 µM

Value source: paper PMC12641998
